Test system: NCI-H1299
procedure.details: MTS assay (cell growth inhibition), NCI-H1299
Type: cell-based
condition.set: NCI-H1299 cells, 72 hours incubation with test compound; concentration not given
outcome.measure: MTS CELL KILL DATA (% INHIBITION) NCI-H1299

Some compounds with recorded MTS CELL KILL DATA (% INHIBITION) NCI-H1299:
structure.notation	value
C[C@H](CN1C(=O)c2cnc3[nH]ncc3c2C1=O)c1ccccc1	C (C = <50% INHIBITION)
CC(C)(C)c1ccc(CN2C(=O)c3cnc4[nH]ncc4c3C2=O)cc1	C (C = <50% INHIBITION)
COc1c(C)cnc(CN2C(=O)c3cnc4[nH]ncc4c3C2=O)c1C	C (C = <50% INHIBITION)
CC(C)c1ccc(CN2C(=O)c3cnc4[nH]ncc4c3C2=O)cc1	C (C = <50% INHIBITION)

Req: Please give measured MTS CELL KILL DATA (% INHIBITION) NCI-H1299 of the following entry: `Cc1c(C)c(C)c(CN2C(=O)c3cnc4[nH]ncc4c3C2=O)c(C)c1C`
Resp: C (C = <50% INHIBITION)

* * *

Tested on: Kato III
procedure.details: MTS assay (cell growth inhibition), Kato III
Assay type: cell-based
condition.set: Kato III cells, 72 hours incubation with test compound; concentration not given
outcome.measure: MTS CELL KILL DATA (% INHIBITION) Kato III

compound	value
O=C1c2cnc3[nH]ncc3c2C(=O)N1Cc1ccncc1 [Example 43]	C (C = <50% INHIBITION)
O=C1c2cnc3[nH]ncc3c2C(=O)N1CC1CCOC1 (centres unmarked) [Example 85]	C (C = <50% INHIBITION)
O=C1c2cnc3[nH]ncc3c2C(=O)N1CCCc1cccnc1 [Example 87]	C (C = <50% INHIBITION)

* * *

System: NCI-H1299
procedure.details: MTS assay (cell growth inhibition), NCI-H1299
Format: cell-based
condition.set: NCI-H1299 cells, 72 hours incubation with test compound; concentration not given
Method: Cells were maintained at 37° C., 5% CO2 in DMEM media supplemented with 1% fetal bovine serum, penicillin/streptomycin and fungizone (Invitrogen). Cells were seeded into 96-well tissue culture plates at 3000 per well and cultured at 37° C. for 18 hours. Test compounds were dissolved and diluted to 300× in DMSO then diluted 1:40 in DMEM. […] The measurement of the absorbance of the formazan was assessed using an ENVISION™ (Perkin Elmer) microplate reader at 492 nm. […]
outcome.measure: MTS CELL KILL DATA (% INHIBITION) NCI-H1299

Some molecules with recorded MTS CELL KILL DATA (% INHIBITION) NCI-H1299:
structure.notation	assayed.target	value
COc1cccc(CN2C(=O)c3cnc4[nH]ncc4c3C2=O)c1OC	NCI-H1299	C (C = <50% INHIBITION)
Cc1ccc(OCCN2C(=O)c3cnc4[nH]ncc4c3C2=O)cc1	NCI-H1299	C (C = <50% INHIBITION)
CC(C)OCCN1C(=O)c2cnc3[nH]ncc3c2C1=O	NCI-H1299	C (C = <50% INHIBITION)
O=C1c2cnc3[nH]nc(-c4ccc(F)c(F)c4)c3c2C(=O)N1CCc1ccccc1	NCI-H1299	C (C = <50% INHIBITION)
O=C1c2cnc3[nH]nc(-c4cncnc4)c3c2C(=O)N1CCc1ccccc1	NCI-H1299	C (C = <50% INHIBITION)
Cc1ccc(-c2ccccc2CN2C(=O)c3cnc4[nH]ncc4c3C2=O)cc1F	NCI-H1299	C (C = <50% INHIBITION)

Field: next molecule
Req: Report MTS CELL KILL DATA (% INHIBITION) NCI-H1299 from NCI-H1299 testing of `Cc1cccc(CCN2C(=O)c3cnc4[nH]ncc4c3C2=O)c1`
Resp: C (C = <50% INHIBITION)

src = patent US8906928B2
